Each recorded value in this set is attributed to patent US20230303681A1.

- ASSAYED_SYSTEM: T1, human TMEM106B (human, UniProt Q9NUM4 2-274)
- T1 construct: Full-length, on transiently transfected HEK293 cells, or natively expressed on HeLa, U251 and A549 cells; also called huTMEM106B; huTMEM
- ASSAY_OVERVIEW: FACS A549
READOUT_LABEL: MFI
Form rule: numeric answer, no unit written next to it.

Examples from the recorded data:
BINDER: anti-TMEM106B antibody TM-52 (antibody, V domains shown, mouse IgG from hybridoma) VH: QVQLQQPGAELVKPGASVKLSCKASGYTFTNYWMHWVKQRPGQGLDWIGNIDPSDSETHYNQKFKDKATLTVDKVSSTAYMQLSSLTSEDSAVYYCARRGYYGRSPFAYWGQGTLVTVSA VL: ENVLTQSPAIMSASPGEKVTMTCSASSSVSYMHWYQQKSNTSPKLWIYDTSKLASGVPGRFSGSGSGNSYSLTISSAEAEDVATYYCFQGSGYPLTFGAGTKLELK
REPORTED_MEASUREMENT: 987
//
BINDER: anti-TMEM106B antibody TM-42 (antibody, V domains shown) VH: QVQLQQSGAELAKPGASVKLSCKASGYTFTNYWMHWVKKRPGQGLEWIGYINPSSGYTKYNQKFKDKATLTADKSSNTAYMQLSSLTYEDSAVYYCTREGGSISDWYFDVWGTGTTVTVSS VL: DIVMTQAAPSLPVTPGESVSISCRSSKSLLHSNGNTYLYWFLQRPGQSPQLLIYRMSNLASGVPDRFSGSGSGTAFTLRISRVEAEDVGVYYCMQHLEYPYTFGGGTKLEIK
REPORTED_MEASUREMENT: 947
//
BINDER: anti-TMEM106B antibody TM-12 (antibody, V domains shown) VH: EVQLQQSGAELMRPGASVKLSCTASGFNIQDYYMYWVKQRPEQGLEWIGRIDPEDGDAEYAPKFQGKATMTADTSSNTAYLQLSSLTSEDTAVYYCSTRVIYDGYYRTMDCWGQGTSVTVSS VL: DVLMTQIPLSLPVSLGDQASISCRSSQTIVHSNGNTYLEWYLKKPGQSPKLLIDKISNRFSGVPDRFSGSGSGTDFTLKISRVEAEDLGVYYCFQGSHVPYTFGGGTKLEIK
REPORTED_MEASUREMENT: 1940

Query block: Fill in: MFI of anti-TMEM106B antibody TM-27 (antibody, V domains shown) VH: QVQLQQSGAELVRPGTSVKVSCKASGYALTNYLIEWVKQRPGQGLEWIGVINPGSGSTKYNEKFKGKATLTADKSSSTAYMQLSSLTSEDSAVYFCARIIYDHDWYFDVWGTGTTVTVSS VL: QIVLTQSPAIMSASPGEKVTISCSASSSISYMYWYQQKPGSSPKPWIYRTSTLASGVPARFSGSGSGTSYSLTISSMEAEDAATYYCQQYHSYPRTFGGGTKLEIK is ___
Result block: 1930

Query block: Which MFI is reported for this binder? anti-TMEM106B antibody TM-28 (antibody, V domains shown) VH: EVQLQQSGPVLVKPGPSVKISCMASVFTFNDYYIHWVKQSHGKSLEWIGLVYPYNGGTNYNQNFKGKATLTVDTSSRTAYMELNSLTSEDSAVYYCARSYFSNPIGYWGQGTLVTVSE VL: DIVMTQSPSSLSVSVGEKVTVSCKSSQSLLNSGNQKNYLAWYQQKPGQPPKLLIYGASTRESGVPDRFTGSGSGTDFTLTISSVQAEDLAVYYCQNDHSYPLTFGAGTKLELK
Result block: 2000
